The values you see were collected from patent US12258328B2.

// reported IC50 for each item listed
# assayTarget: EGFR wildtype (Homo sapiens)
# Sequence (P00533 25-1210): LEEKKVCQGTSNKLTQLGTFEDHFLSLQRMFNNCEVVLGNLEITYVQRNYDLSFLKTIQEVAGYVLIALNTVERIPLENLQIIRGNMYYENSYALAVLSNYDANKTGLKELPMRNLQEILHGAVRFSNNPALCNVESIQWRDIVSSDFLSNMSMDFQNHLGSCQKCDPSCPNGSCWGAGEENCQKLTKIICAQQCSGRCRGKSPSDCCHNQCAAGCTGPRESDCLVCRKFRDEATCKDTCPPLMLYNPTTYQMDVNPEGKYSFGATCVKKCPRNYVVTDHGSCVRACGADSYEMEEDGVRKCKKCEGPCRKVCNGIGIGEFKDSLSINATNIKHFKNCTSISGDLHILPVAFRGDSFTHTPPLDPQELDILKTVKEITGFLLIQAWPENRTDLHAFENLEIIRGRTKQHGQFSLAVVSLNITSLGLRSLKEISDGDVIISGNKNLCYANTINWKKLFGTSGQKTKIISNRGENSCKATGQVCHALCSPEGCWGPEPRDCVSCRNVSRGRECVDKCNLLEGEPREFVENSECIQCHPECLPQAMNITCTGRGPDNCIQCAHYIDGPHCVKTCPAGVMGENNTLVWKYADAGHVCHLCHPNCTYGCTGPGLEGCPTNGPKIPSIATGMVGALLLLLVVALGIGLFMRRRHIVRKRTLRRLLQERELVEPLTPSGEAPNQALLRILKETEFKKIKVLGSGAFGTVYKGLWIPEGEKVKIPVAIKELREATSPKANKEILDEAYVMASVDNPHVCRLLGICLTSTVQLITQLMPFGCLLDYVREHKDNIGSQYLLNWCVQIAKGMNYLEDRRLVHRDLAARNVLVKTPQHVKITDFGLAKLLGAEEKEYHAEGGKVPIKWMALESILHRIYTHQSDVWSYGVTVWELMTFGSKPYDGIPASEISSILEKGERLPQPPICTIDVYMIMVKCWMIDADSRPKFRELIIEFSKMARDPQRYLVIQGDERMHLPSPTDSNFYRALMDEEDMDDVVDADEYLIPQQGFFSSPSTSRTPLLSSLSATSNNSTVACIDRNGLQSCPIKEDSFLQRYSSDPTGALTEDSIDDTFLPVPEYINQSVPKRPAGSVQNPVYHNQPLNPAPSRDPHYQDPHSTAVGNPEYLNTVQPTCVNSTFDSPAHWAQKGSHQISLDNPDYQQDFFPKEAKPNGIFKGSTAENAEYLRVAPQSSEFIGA
# assayProtocol: Biochemical EGFR kinase assay (Lance Ultra TR-FRET), wildtype
# conditions: IC50 WT, 100 μM ATP

Kindly note the recorded IC50 for C[C@]1(O)CC[C@@H](Nc2cc(Nc3ccnc(-c4cnn(S(=O)(=O)C5CC5)c4)n3)ncc2-c2cccc(F)n2)CC1 [Example 271] , which is > 10 µM

Kindly note the recorded IC50 for CC(C)(O)[C@H]1CC[C@@H](Nc2cc(Nc3ccnc(-c4cnn(S(=O)(=O)C5CC5)c4)n3)ncc2-c2cnc(F)cn2)CC1 [Example 186] , which is > 10 µM

Kindly note the recorded IC50 for CN1CCN(S(=O)(=O)c2ccc(-c3cnc(Nc4ccnc(-c5cnn(S(=O)(=O)C6CC6)c5)n4)cc3N[C@H]3CC[C@@](C)(O)CC3)nc2)CC1 [Example 188] , which is > 10 µM
